assay: Drug excipient compatibility: physical description after storage; format: physicochemical; settings: up to 4 weeks 40° C./75% RH and 25° C./60% RH, 60° C. 1 week
metric: Compatibility of excipient with Miglustat in binary mixture (DEC study conclusion)

O=C1O[C@H]([C@@H](O)CO)C(O)=C1O [ascorbic acid] : not compatible
O=C([O-])c1ccccc1.[Na+] [Sodium Benzoate, sodium salt of benzoic acid] : compatible
O=C(O)C(O)C(O)C(=O)O (centres unmarked) [Tartaric acid, 2,3-Dihydroxybutanedioic acid] : compatible
CC1=CC(=O)NS(=O)(=O)O1 [Acesulfame Potassium] : not compatible

Kindly review the next compound as well.
Problem: What does the data say about its Compatibility of excipient with Miglustat in binary mixture (DEC study conclusion)? Entry: Cl [Hydrochloric acid]
Result: not compatible
